# System: Human immunodeficiency virus 1
# experiment_summary: Reduction of viral load in the cell supernatant.
# Format: functional, organism-based
measured_attribute: pIC50
The quantity pIC50 is defined as the negative base-10 logarithm of the molar concentration.

compound_smiles | pIC50
COc1cc(/C=C/c2ccc3ccc(C(=O)O)c(O)c3n2)cc(O)c1O | 4.92

// returns reported pIC50 for input O=C(O)c1ccc2ccc(/C=C/c3cc(Br)c(O)c(Br)c3)nc2c1O
4.52

Same question, COc1ccc(/C=C/c2ccc3ccc(C(=O)O)c(O)c3n2)cc1O this time
4.27

Same question, O=C(O)c1ccc2ccc(/C=C/c3cc(O)c(O)c(I)c3)nc2c1O this time
5.17

Same question, O=C(O)c1ccc2ccc(/C=C/c3ccc(O)cc3)nc2c1O this time
4.02

Same question, O=C(O)c1ccc2ccc(/C=C/c3ccc4c(c3)OCO4)nc2c1O this time
5.00

Same question, O=C(O)c1ccc2ccc(/C=C/c3ccc(F)c(F)c3)nc2c1O this time
4.52

Same question, O=C(O)c1cccc2ccc(/C=C/c3ccc(O)c(O)c3)nc12 this time
4.92

src = ChEMBL document CHEMBL1135622
